Sourced from patent US10562898B2

# tgt: α4β7 integrin (Homo sapiens, UniProt P13612+P26010)
# Construct: a cell line RPMI-8866, which is known to express α4β7 integrin; endogenous in cells; host or cells: RPMI-8866 (human B cell line)
# Sequence (P13612 34-1032): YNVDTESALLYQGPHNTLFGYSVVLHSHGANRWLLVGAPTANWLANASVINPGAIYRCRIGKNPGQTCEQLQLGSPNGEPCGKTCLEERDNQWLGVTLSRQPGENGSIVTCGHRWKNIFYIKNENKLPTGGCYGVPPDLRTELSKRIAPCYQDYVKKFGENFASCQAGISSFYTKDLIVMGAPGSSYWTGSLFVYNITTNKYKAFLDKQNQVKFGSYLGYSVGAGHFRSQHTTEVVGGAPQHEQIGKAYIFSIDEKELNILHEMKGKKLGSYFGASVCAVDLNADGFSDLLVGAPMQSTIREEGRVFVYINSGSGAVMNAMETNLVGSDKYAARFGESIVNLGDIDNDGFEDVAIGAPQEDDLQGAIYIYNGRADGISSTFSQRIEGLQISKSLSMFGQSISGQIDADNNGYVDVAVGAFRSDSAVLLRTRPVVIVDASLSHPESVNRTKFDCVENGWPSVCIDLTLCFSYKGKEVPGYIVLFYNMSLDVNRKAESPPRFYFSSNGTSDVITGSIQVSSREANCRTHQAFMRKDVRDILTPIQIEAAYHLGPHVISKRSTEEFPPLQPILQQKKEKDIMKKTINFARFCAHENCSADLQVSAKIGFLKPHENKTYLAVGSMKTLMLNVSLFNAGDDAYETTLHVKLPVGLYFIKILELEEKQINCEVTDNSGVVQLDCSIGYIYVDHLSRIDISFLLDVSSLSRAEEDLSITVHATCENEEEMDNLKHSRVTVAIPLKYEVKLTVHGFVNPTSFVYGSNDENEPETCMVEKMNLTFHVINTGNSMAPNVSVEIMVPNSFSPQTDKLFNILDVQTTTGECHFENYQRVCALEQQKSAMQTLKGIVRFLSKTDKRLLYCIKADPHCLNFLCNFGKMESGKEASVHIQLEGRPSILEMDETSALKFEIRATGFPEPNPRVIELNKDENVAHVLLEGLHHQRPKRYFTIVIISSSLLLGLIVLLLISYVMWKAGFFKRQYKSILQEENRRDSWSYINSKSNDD
# Sequence (P26010 20-798): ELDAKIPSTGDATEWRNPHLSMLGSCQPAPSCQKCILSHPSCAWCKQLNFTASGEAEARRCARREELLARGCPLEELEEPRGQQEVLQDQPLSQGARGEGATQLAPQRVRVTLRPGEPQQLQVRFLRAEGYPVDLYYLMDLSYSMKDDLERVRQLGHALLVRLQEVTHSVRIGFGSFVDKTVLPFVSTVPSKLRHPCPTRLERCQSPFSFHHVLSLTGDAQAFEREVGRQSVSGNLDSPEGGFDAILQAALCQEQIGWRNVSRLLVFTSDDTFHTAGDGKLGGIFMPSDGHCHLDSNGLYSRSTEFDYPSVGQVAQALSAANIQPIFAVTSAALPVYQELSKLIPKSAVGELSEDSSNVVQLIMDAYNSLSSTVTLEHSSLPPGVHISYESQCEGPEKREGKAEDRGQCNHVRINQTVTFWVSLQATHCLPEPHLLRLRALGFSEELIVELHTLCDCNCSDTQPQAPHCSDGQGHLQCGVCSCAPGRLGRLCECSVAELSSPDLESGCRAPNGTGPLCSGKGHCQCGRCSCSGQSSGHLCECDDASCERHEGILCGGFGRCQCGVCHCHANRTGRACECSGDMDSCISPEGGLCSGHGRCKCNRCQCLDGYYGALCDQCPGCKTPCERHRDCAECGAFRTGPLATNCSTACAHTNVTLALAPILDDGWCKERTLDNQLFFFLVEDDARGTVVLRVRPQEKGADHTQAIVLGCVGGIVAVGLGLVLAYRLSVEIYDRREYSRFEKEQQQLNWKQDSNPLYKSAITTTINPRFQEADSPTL
# method: MAdCAM-1/α4β7 integrin binding inhibitory activity evaluation test (RPMI-8866 cells binding to MAdCAM-1/Fc)
# Type: cell-based
# condition: recombinant mouse MAdCAM-1/Fc, no serum
pIC50: −log10 of the molar value.
quantityKind: pIC50

Query :: For the compound Cn1c2c(c(=O)n(-c3ccc(C[C@H](NC(=O)c4cc(F)c(NS(=O)(=O)c5ccc(NC(=O)C(C)(C)C)cc5)cc4F)C(=O)O)cn3)c1=O)CCOC2 [Compound A40] , report pIC50.
Result :: 9.13

Query :: For the compound Cc1c(C)n(C)c(=O)n(-c2ccc(C[C@H](NC(=O)c3cc(F)c(NS(=O)(=O)c4ccc(NC(=O)C5(c6ccccc6)CC5)cc4)cc3F)C(=O)O)cc2)c1=O [Compound A30] , report pIC50.
Result :: 9.24

Query :: For the compound Cn1c(=O)n(-c2ccc(C[C@H](NC(=O)c3cc(F)c(NS(=O)(=O)c4ccc(NC(=O)C(C)(C)C)cn4)cc3F)C(=O)O)cn2)c(=O)c2ccncc21 [Compound A31] , report pIC50.
Result :: 9.15

A. Cn1ccc(=O)n(-c2ccc(C[C@H](NC(=O)c3cc(F)c(NS(=O)(=O)c4ccc(NC(=O)C(C)(C)C)cc4)cc3F)C(=O)O)cc2)c1=O [Compound A42]
B. CN1C(=O)N(c2ccc(S(=O)(=O)Nc3cc(F)c(C(=O)N[C@@H](Cc4ccc(-n5c(=O)c6ccncc6n(C)c5=O)nc4)C(=O)O)cc3F)cc2)C(=O)C1(C)C [Compound A38]
Query :: Between A and B , which one shows the larger pIC50 value? Bench note: the answer is the label of the chosen record.
Result :: A
(A: 9.11, B: 8.28)

====

# tgt: α4β1 integrin (Homo sapiens, UniProt P05556+P13612)
# Construct: a cell line Jurkat, which is known to express α4β1 integrin; endogenous in cells
# Sequence (P13612 34-1032): as the sequence (P13612 34-1032) above
# Sequence (P05556 21-798): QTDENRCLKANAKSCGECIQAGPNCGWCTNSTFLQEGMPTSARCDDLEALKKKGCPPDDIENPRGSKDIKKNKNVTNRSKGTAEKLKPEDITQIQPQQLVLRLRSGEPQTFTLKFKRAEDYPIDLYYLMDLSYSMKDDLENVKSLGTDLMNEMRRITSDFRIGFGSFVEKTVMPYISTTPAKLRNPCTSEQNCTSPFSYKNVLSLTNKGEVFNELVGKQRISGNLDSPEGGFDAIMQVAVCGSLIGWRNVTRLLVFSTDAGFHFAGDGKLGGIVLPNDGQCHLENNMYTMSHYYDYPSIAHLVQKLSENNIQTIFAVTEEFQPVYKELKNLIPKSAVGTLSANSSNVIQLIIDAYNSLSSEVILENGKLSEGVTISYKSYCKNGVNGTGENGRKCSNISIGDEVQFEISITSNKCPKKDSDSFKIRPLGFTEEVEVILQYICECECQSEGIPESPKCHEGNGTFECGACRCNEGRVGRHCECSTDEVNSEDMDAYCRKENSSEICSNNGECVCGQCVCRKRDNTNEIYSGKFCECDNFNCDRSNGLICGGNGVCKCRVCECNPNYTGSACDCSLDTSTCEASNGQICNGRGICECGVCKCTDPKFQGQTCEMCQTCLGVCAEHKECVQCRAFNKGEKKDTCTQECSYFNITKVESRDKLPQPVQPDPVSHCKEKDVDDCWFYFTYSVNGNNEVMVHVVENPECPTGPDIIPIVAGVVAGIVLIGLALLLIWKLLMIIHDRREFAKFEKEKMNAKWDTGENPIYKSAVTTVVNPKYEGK
# method: VCAM-1/α4β1 integrin binding inhibitory activity evaluation test (Jurkat cells binding to VCAM-1/Fc)
# condition: recombinant human VCAM-1/Fc
pIC50: −log10 of the molar value.
quantityKind: pIC50

Observe how each entry below is paired with its result.
Query :: Return reported pIC50 for target or system α4β1 integrin (Homo sapiens, UniProt P05556+P13612), item Cn1c2c(c(=O)n(-c3ccc(C[C@H](NC(=O)c4cc(F)c(NS(=O)(=O)c5ccc(NC(=O)C(C)(C)C)cc5)cc4F)C(=O)O)cn3)c1=O)CCOC2 [Compound A40] .
Result :: 5.64

Query :: Return reported pIC50 for target or system α4β1 integrin (Homo sapiens, UniProt P05556+P13612), item Cc1c(C)n(C)c(=O)n(-c2ccc(C[C@H](NC(=O)c3cc(F)c(NS(=O)(=O)c4cc(NC(=O)C(C)(C)C)cs4)cc3F)C(=O)O)cc2)c1=O [Compound A11] .
Result :: 5.49

Query :: Return reported pIC50 for target or system α4β1 integrin (Homo sapiens, UniProt P05556+P13612), item Cc1cc(=O)n(-c2ccc(C[C@H](NC(=O)c3cc(F)c(NS(=O)(=O)c4ccc(NC(=O)C(C)(C)C)cc4)cc3F)C(=O)O)cc2)c(=O)n1C [Compound A46] .
Result :: 5.74

Query :: Return reported pIC50 for target or system α4β1 integrin (Homo sapiens, UniProt P05556+P13612), item Cc1c(CO)c(=O)n(-c2ccc(C[C@H](NC(=O)c3cc(F)c(NS(=O)(=O)c4ccc(NC(=O)C(C)(C)C)cc4)cc3F)C(=O)O)cc2)c(=O)n1C [Compound A51] .
Result :: 5.26

Query :: Return reported pIC50 for target or system α4β1 integrin (Homo sapiens, UniProt P05556+P13612), item COc1cc2c(=O)n(-c3ccc(C[C@H](NC(=O)c4cc(F)c(NS(=O)(=O)c5ccc(NC(=O)C(C)(C)C)cc5)cc4F)C(=O)O)cc3)c(=O)n(C)c2cn1 [Compound A36] .
Result :: 5.74

1. Cn1c(=O)n(-c2ccc(C[C@H](NC(=O)c3cc(F)c(NS(=O)(=O)c4ccc(NC(=O)C(C)(C)C)s4)cc3F)C(=O)O)cc2)c(=O)c2ccncc21 [Compound A9]
2. Cc1c(C)n(C)c(=O)n(-c2ccc(C[C@H](NC(=O)c3cc(F)c(NS(=O)(=O)c4cccc(NC(=O)C(C)(C)C)c4)cc3F)C(=O)O)cn2)c1=O [Compound A50]
3. Cc1c(C)n(C)c(=O)n(-c2ccc(C[C@H](NC(=O)c3cc(F)c(NS(=O)(=O)c4cccc(NC(=O)C(C)(C)C)c4)cc3F)C(=O)O)cc2)c1=O [Compound A49]
Query :: Put these in order: smallest pIC50 first, largest last. Provide your answer as the labels ordered per the instruction.
Result :: 2, 3, 1

I. Cc1c(C)n(C(C)C)c(=O)n(-c2ccc(C[C@H](NC(=O)c3cc(F)c(NS(=O)(=O)c4ccc(NC(=O)C(C)(C)C)cc4)cc3F)C(=O)O)cc2)c1=O [Compound A48]
II. Cn1c(C(F)(F)F)cc(=O)n(-c2ccc(C[C@H](NC(=O)c3cc(F)c(NS(=O)(=O)c4ccc(NC(=O)C(C)(C)C)cc4)cc3F)C(=O)O)cn2)c1=O [Compound A66]
Query :: Between I and II , which one shows the larger pIC50 value? Bench note: the answer is the label of the chosen record.
Result :: I

====

# tgt: α4β7 integrin (Homo sapiens, UniProt P13612+P26010)
# Construct: a cell line RPMI-8866, which is known to express α4β7 integrin; endogenous in cells; host or cells: RPMI-8866 (human B cell line)
# method: MAdCAM-1/α4β7 integrin binding inhibitory activity evaluation test in presence of serum
# Assay type: cell-based
# condition: RPMI-8866 cells, recombinant mouse MAdCAM-1/Fc, 50% human serum; read-out: α4β7 Serum Added IC50
quantityKind: IC50 (nM)

Query :: For the compound "Cc1cn(C)c(=O)n(-c2ccc(C[C@H](NC(=O)c3cc(F)c(NS(=O)(=O)c4ccc(NC(=O)C(C)(C)C)cc4)cc3F)C(=O)O)nc2)c1=O" , report IC50.
Result :: 16

Query :: For the compound "Cn1ccc(=O)n(-c2ccc(C[C@H](NC(=O)c3cc(F)c(NS(=O)(=O)c4ccc(NC(=O)C(C)(C)C(F)(F)F)cc4)cc3F)C(=O)O)cn2)c1=O" , report IC50.
Result :: 14

Query :: For the compound "Cc1c(CO)c(=O)n(-c2ccc(C[C@H](NC(=O)c3cc(F)c(NS(=O)(=O)c4ccc(NC(=O)C(C)(C)C)cc4)cc3F)C(=O)O)cc2)c(=O)n1C" , report IC50.
Result :: 13

A. Cc1cn(C)c(=O)n(-c2ccc(C[C@H](NC(=O)c3cc(F)c(NS(=O)(=O)c4ccc(NC(=O)C(C)(C)CO)cc4)cc3F)C(=O)O)cn2)c1=O
B. Cc1c(C)n(C)c(=O)n(-c2ccc(C[C@H](NC(=O)c3cc(F)c(NS(=O)(=O)c4ccc(NC(=O)C(C)(C)C)cn4)cc3F)C(=O)O)cn2)c1=O
Query :: Input pair: A , B . Output: entry with lower IC50. Bench note: the answer is the label of the chosen record.
Result :: B

====

# tgt: α4β1 integrin (Homo sapiens, UniProt P05556+P13612)
# Construct: a cell line Jurkat, which is known to express α4β1 integrin; endogenous in cells
# method: VCAM-1/α4β1 integrin binding inhibitory activity evaluation test (Jurkat cells binding to VCAM-1/Fc)
# condition: recombinant human VCAM-1/Fc
quantityKind: IC50 (µM)

Observe how each entry below is paired with its result.
Query :: Return reported IC50 for target or system α4β1 integrin (Homo sapiens, UniProt P05556+P13612), item "CN1C(=O)N(c2ccc(S(=O)(=O)Nc3cc(F)c(C(=O)N[C@@H](Cc4ccc(-n5c(=O)c6ccncc6n(C)c5=O)nc4)C(=O)O)cc3F)cc2)C(=O)C1(C)C" .
Result :: 4

Query :: Return reported IC50 for target or system α4β1 integrin (Homo sapiens, UniProt P05556+P13612), item "Cn1c(=O)n(-c2ccc(C[C@H](NC(=O)c3cc(F)c(NS(=O)(=O)c4ccc(NC(=O)C5CCNCC5)cc4)cc3F)C(=O)O)cc2)c(=O)c2ccncc21" .
Result :: 0.89

Query :: Return reported IC50 for target or system α4β1 integrin (Homo sapiens, UniProt P05556+P13612), item "Cc1cn(C)c(=O)n(-c2ccc(C[C@H](NC(=O)c3cc(F)c(NS(=O)(=O)c4ccc5c(NC(=O)C(C)(C)C)c[nH]c5c4)cc3F)C(=O)O)cn2)c1=O" .
Result :: 7.4

Query :: Return reported IC50 for target or system α4β1 integrin (Homo sapiens, UniProt P05556+P13612), item "Cn1c(=O)n(-c2ccc(C[C@H](NC(=O)c3cc(F)c(NS(=O)(=O)c4ccc(NC(=O)C5(O)CC5)cc4)cc3F)C(=O)O)cc2)c(=O)c2ccncc21" .
Result :: 0.82

Query :: Return reported IC50 for target or system α4β1 integrin (Homo sapiens, UniProt P05556+P13612), item "Cn1c(=O)n(-c2ccc(C[C@H](NC(=O)c3cc(F)c(NS(=O)(=O)c4ccc(NC(=O)NC(C)(C)C)cc4)cc3F)C(=O)O)cc2)c(=O)c2ccncc21" .
Result :: 2

P. Cn1cnc2c1c(=O)n(-c1ccc(C[C@H](NC(=O)c3cc(F)c(NS(=O)(=O)c4ccc(NC(=O)C(C)(C)C)cc4)cc3F)C(=O)O)cc1)c(=O)n2C
Q. CN1CCC(=O)N(c2ccc(C[C@H](NC(=O)c3cc(F)c(NS(=O)(=O)c4ccc(NC(=O)C(C)(C)C)cc4)cc3F)C(=O)O)cn2)C1=O
R. Cc1c(C)n(C)c(=O)n(-c2ccc(C[C@H](NC(=O)c3cc(F)c(NS(=O)(=O)c4ccc(NC(=O)C(C)(C)C)cc4)cc3F)C(=O)O)cn2)c1=O
S. CCC(CC)C(=O)Nc1ccc(S(=O)(=O)Nc2cc(F)c(C(=O)N[C@@H](Cc3ccc(-n4c(=O)c(C)c(C)n(C)c4=O)cc3)C(=O)O)cc2F)cc1
T. Cc1c(C)n(C)c(=O)n(-c2ccc(C[C@H](NC(=O)c3cc(F)c(NS(=O)(=O)c4ccc(NC(=O)C(C)(C)C)s4)cc3F)C(=O)O)cc2)c1=O
Query :: Put the entries in order of IC50, starting with the largest number. Provide your answer as the labels ordered per the instruction.
Result :: Q, R, S, P, T
(Q: 32 µM, R: 3.6 µM, S: 2.5 µM, P: 1.2 µM, T: 0.4 µM)
